system: NCI-H929 complex spheroids, viability % test/control; assay: Anticancer human tumor NCI-H929 cell line growth inhibition [RAS]; conditions: second compound 0.00949 µM; first compound 0.0316 µM; active = viability on the fitted dose curve at most 10% of control; inactive = the rest
Permitted responses: Y for active, N for inactive

The following compounds have reported results that may help.
compound	qualitative label
Nc1ccn(C2OC(CO)C(O)C2(F)F)c(=O)n1 (centres undefined) + CCn1c(-c2cccnc2C(C)OC)c2c3cc(ccc31)N1CCOC(CC(NC(=O)C(C(C)C)N(C)C(=O)C3(F)CCN(C(=O)C#CC(C)(C)N(C)C)CC3)C(=O)N3CCCC(N3)C(=O)OCC(C)(C)C2)C1	Y
CC1(O)CCCC1n1c(=O)c(C(F)F)cc2cnc(NC3CCN(S(C)(=O)=O)CC3)nc21 (centres undefined) + CCn1c(-c2cccnc2C(C)OC)c2c3cc(ccc31)N1CCOC(CC(NC(=O)C(C(C)C)N(C)C(=O)C3(F)CCN(C(=O)C#CC(C)(C)N(C)C)CC3)C(=O)N3CCCC(N3)C(=O)OCC(C)(C)C2)C1	N
C=CC(=O)N1CCN(c2nc(OCC3CCCN3C)nc3c(F)c(-c4nc(N)cc(C)c4C(F)(F)F)c(Cl)cc23)C(C)C1 (centres undefined) + CCn1c(-c2cccnc2C(C)OC)c2c3cc(ccc31)N1CCOC(CC(NC(=O)C(C(C)C)N(C)C(=O)C3(F)CCN(C(=O)C#CC(C)(C)N(C)C)CC3)C(=O)N3CCCC(N3)C(=O)OCC(C)(C)C2)C1	N

Now turn to the next compound.
Entry O=C(c1ccc(F)c(F)c1Nc1ccc(I)cc1F)N1CC(O)([C@@H]2CCCCN2)C1 + CCn1c(-c2cc(N3CCN(C)CC3)cnc2C(C)OC)c2c3cc(ccc31)-c1csc(n1)CC(NC(=O)C1CC1C)C(=O)N1CCCC(N1)C(=O)OCC(C)(C)C2 : call = ?
N

---

test system: NCI-H929 complex spheroids, viability % test/control; test: Anticancer human tumor NCI-H929 cell line growth inhibition [RAS]; details: second compound 0.0316 µM; first compound 0.1 µM; active = viability on the fitted dose curve at most 10% of control; inactive = the rest;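 also: compound exposure lasted seven days before viability was read; 100% = DMSO vehicle control viability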
Permitted responses: active, inactive

The following molecules have reported results that may help.
molecule	qualitative label
Nc1ccn(C2OC(CO)C(O)C2(F)F)c(=O)n1 (stereo not given) + C=CC(=O)N1CCN(c2nc(OCC3CCCN3C)nc3c(F)c(-c4nc(N)cc(C)c4C(F)(F)F)c(Cl)cc23)C(C)C1	active
CC1(O)CCCC1n1c(=O)c(C(F)F)cc2cnc(NC3CCN(S(C)(=O)=O)CC3)nc21 (stereo not given) + C=CC(=O)N1CCN(c2nc(OCC3CCCN3C)nc3c(F)c(-c4nc(N)cc(C)c4C(F)(F)F)c(Cl)cc23)C(C)C1	inactive
CC(C)n1nc(-c2ccc3oc(N)nc3c2)c2c(N)ncnc21 + C#Cc1c(F)ccc2cc(O)cc(-c3ncc4c(N5CC6CCC(C5)N6)nc(OCC56CCCN5CC(F)C6)nc4c3F)c12	active

Entry O=C(c1ccc(F)c(F)c1Nc1ccc(I)cc1F)N1CC(O)([C@@H]2CCCCN2)C1 + C#Cc1c(F)ccc2cc(O)cc(-c3ncc4c(N5CC6CCC(C5)N6)nc(OCC56CCCN5CC(F)C6)nc4c3F)c12 : call = ?
inactive

Also need Cc1nc(N2CCC3(CC2)COC(C)C3N)c(CO)nc1Sc1ccnc(N)c1Cl (stereo not given) + C#Cc1c(F)ccc2cc(O)cc(-c3ncc4c(N5CC6CCC(C5)N6)nc(OCC56CCCN5CC(F)C6)nc4c3F)c12 , thanks.
inactive

---

Could you please report measured viability, T/C for the items listed next?
Tested on: NCI-H929 complex spheroids, viability % test/control
Assay: Anticancer human tumor NCI-H929 cell line growth inhibition [RAS];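 also: compound exposure lasted seven days before viability was read; 100% = DMSO vehicle control viability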
Settings: second compound 3.16 µM; first compound 0.316 µM; stronger effect = lower value
Text: RAS pathway inhibitors in Combinations in Complex Spheroids A high-throughput screen of multi-cell type tumor spheroids was designed to identify active combinations of RAS pathway inhibitors and targeted small molecules. Complex spheroids include a stromal component modeled by human endothelial cells (HUVEC) and fibroblasts modeled by human mesenchymal stem cells (MSCs). […] Compounds. […] If the clinical Cmax for an agent had not been determined, the highest concentration tested was 10 microM. […]
One number for each entry, in %.

Recorded viability, T/C, per entry:
molecule	measurement target	value measured
CC(C)NCC(C(=O)N1CCN(c2ncnc3c2C(C)CC3O)CC1)c1ccc(Cl)cc1 (stereo not drawn) + C#Cc1c(F)ccc2cc(O)cc(-c3ncc4c(N5CC6CCC(C5)N6)nc(OCC56CCCN5CC(F)C6)nc4c3F)c12	NCI-H929 complex spheroids, viability % test/control	107
C=CC(=O)N1CCN(c2nc(OCC3CCCN3C)nc3c(F)c(-c4nc(N)cc(C)c4C(F)(F)F)c(Cl)cc23)C(C)C1 (stereo not drawn) + C#Cc1c(F)ccc2cc(O)cc(-c3ncc4c(N5CC6CCC(C5)N6)nc(OCC56CCCN5CC(F)C6)nc4c3F)c12	NCI-H929 complex spheroids, viability % test/control	106

State its viability, T/C on NCI-H929 complex spheroids, viability % test/control: C=CC(=O)Nc1cc(Nc2nccc(-c3cn(C)c4ccccc34)n2)c(OC)cc1N(C)CCN(C)C + C#Cc1c(F)ccc2cc(O)cc(-c3ncc4c(N5CC6CCC(C5)N6)nc(OCC56CCCN5CC(F)C6)nc4c3F)c12
102

---

Test system: NCI-H929 complex spheroids, viability % test/control
Experiment: Anticancer human tumor NCI-H929 cell line growth inhibition [RAS];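 also: compound exposure lasted seven days before viability was read; 100% = DMSO vehicle control viability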
Conditions: second compound 0.0949 µM; first compound 10 µM; stronger effect = lower value
Excerpt: RAS pathway inhibitors in Combinations in Complex Spheroids A high-throughput screen of multi-cell type tumor spheroids was designed to identify active combinations of RAS pathway inhibitors and targeted small molecules. Complex spheroids include a stromal component modeled by human endothelial cells (HUVEC) and fibroblasts modeled by human mesenchymal stem cells (MSCs). […] Compounds. […] If the clinical Cmax for an agent had not been determined, the highest concentration tested was 10 microM. […]
measurement kind: viability, T/C

Hi team, please reply with viability, T/C for each item in this list.
1. CCC(CC)c1cc(NC2CCC(N)C2)n2nccc2n1 (centres undefined) + CCn1c(-c2cc(N3CCN(C)CC3)cnc2C(C)OC)c2c3cc(ccc31)-c1csc(n1)CC(NC(=O)C1CC1C)C(=O)N1CCCC(N1)C(=O)OCC(C)(C)C2
2. CC1(O)CCCC1n1c(=O)c(C(F)F)cc2cnc(NC3CCN(S(C)(=O)=O)CC3)nc21 (centres undefined) + CCn1c(-c2cccnc2C(C)OC)c2c3cc(ccc31)N1CCOC(CC(NC(=O)C(C(C)C)N(C)C(=O)C3(F)CCN(C(=O)C#CC(C)(C)N(C)C)CC3)C(=O)N3CCCC(N3)C(=O)OCC(C)(C)C2)C1
3. CC(=O)OC12COC1CC(O)C1(C)C(=O)C(O)C3=C(C)C(OC(=O)C(O)C(NC(=O)OC(C)(C)C)c4ccccc4)CC(O)(C(OC(=O)c4ccccc4)C21)C3(C)C (centres undefined) + CCn1c(-c2cccnc2C(C)OC)c2c3cc(ccc31)N1CCOC(CC(NC(=O)C(C(C)C)N(C)C(=O)C3(F)CCN(C(=O)C#CC(C)(C)N(C)C)CC3)C(=O)N3CCCC(N3)C(=O)OCC(C)(C)C2)C1
4. CCC(CC)c1cc(NC2CCC(N)C2)n2nccc2n1 (centres undefined) + CCn1c(-c2cccnc2C(C)OC)c2c3cc(ccc31)N1CCOC(CC(NC(=O)C(C(C)C)N(C)C(=O)C3(F)CCN(C(=O)C#CC(C)(C)N(C)C)CC3)C(=O)N3CCCC(N3)C(=O)OCC(C)(C)C2)C1

0.09%
0.12%
0.72%
0.22%

---

tested on: NCI-H929 complex spheroids, viability % test/control; assay: Anticancer human tumor NCI-H929 cell line growth inhibition [RAS]; conditions: second compound 0.0949 µM; first compound 0.01 µM; stronger effect = lower value;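 also: compound exposure lasted seven days before viability was read; 100% = DMSO vehicle control viability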
measurement kind: viability, T/C (%)
Answers are plain numbers, in %.

Recorded viability, T/C, per entry:
compound	quantity unit	viability, T/C
C=CC(=O)N1CCN(c2nc(OCC3CCCN3C)nc3c(F)c(-c4nc(N)cc(C)c4C(F)(F)F)c(Cl)cc23)C(C)C1 (stereo not drawn) + CCn1c(-c2cc(N3CCN(C)CC3)cnc2C(C)OC)c2c3cc(ccc31)-c1csc(n1)CC(NC(=O)C1CC1C)C(=O)N1CCCC(N1)C(=O)OCC(C)(C)C2	%	7.92
CC(C)n1nc(-c2ccc3oc(N)nc3c2)c2c(N)ncnc21 + CCn1c(-c2cc(N3CCN(C)CC3)cnc2C(C)OC)c2c3cc(ccc31)-c1csc(n1)CC(NC(=O)C1CC1C)C(=O)N1CCCC(N1)C(=O)OCC(C)(C)C2	%	1.59

Hi team, please reply with viability, T/C for each item in this list.
1. C=CC(=O)Nc1cc(Nc2nccc(-c3cn(C)c4ccccc34)n2)c(OC)cc1N(C)CCN(C)C + CCn1c(-c2cccnc2C(C)OC)c2c3cc(ccc31)N1CCOC(CC(NC(=O)C(C(C)C)N(C)C(=O)C3(F)CCN(C(=O)C#CC(C)(C)N(C)C)CC3)C(=O)N3CCCC(N3)C(=O)OCC(C)(C)C2)C1
2. Nc1ccn(C2OC(CO)C(O)C2(F)F)c(=O)n1 (stereo not drawn) + CCn1c(-c2cccnc2C(C)OC)c2c3cc(ccc31)N1CCOC(CC(NC(=O)C(C(C)C)N(C)C(=O)C3(F)CCN(C(=O)C#CC(C)(C)N(C)C)CC3)C(=O)N3CCCC(N3)C(=O)OCC(C)(C)C2)C1

[102, 3.76]

Hi team, please reply with viability, T/C for each item in this list.
1. O=C(c1ccc(F)c(F)c1Nc1ccc(I)cc1F)N1CC(O)([C@@H]2CCCCN2)C1 + CCn1c(-c2cccnc2C(C)OC)c2c3cc(ccc31)N1CCOC(CC(NC(=O)C(C(C)C)N(C)C(=O)C3(F)CCN(C(=O)C#CC(C)(C)N(C)C)CC3)C(=O)N3CCCC(N3)C(=O)OCC(C)(C)C2)C1
2. O=C(c1ccc(F)c(F)c1Nc1ccc(I)cc1F)N1CC(O)([C@@H]2CCCCN2)C1 + CCn1c(-c2cc(N3CCN(C)CC3)cnc2C(C)OC)c2c3cc(ccc31)-c1csc(n1)CC(NC(=O)C1CC1C)C(=O)N1CCCC(N1)C(=O)OCC(C)(C)C2
3. CCN1CCN(Cc2ccc(Nc3ncc(F)c(-c4cc(F)c5nc(C)n(C(C)C)c5c4)n3)nc2)CC1 + CCn1c(-c2cc(N3CCN(C)CC3)cnc2C(C)OC)c2c3cc(ccc31)-c1csc(n1)CC(NC(=O)C1CC1C)C(=O)N1CCCC(N1)C(=O)OCC(C)(C)C2
4. Nc1ccn(C2OC(CO)C(O)C2(F)F)c(=O)n1 (stereo not drawn) + CCn1c(-c2cc(N3CCN(C)CC3)cnc2C(C)OC)c2c3cc(ccc31)-c1csc(n1)CC(NC(=O)C1CC1C)C(=O)N1CCCC(N1)C(=O)OCC(C)(C)C2

99.7
3.41
8.26
1.67
